Test: amyloid nucleation score (Sup35N fusion, yeast selection) (log enrichment); library NNK2; higher = more nucleation; inactive = no reads after selection;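 further: zero at mode of non-aggregating sequences after 7 days selection at 30°C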
Please mark true if the recorded amyloid nucleation score is equal to or greater than 0.2, and false if it falls below.

substance=LMDQSTFNRVKYVGHWVVSG assigned_class=true
substance=YLRTCI assigned_class=false
substance=YRACCVYNLGEVEWGVWVVC assigned_class=false
substance=VLSENITSLISKCYCFKSHL assigned_class=true
substance=LDNACSQGGGDFRLSLS assigned_class=false
substance=LFLRAHILGTVTCIRDFAPG assigned_class=true
substance=MDLRVTVILFSDYEAYFDVT assigned_class=true
substance=FASYRVY assigned_class=true
substance=FILRHQFCLRTLIYGPSIFF assigned_class=true
substance=NCFKECVVPHR assigned_class=false
substance=SMYLTETRLHCHDWSAAAWG assigned_class=true
substance=QEVSIKSFLRKYLLCYTMML assigned_class=false
substance=KSASCKPIMSYPKVLPS assigned_class=true
substance=WLYRQFDLSLESYNWMPGIE assigned_class=true
substance=VHYVFSCCNKLPSANSRWGL assigned_class=true
substance=PWYLRVSEHHKPWEPENWG assigned_class=true
substance=CMFEFHGVAVGLMRVFHRLW assigned_class=true
substance=VSGCRGVMLI assigned_class=false
substance=HYGTTFVISL assigned_class=true
substance=FMCLHSARNVVMRMDVRVVL assigned_class=true
substance=LVEVIGFVRVSEPISTHA assigned_class=true
substance=PDLCEFLMLYMMITLNFCIN assigned_class=false
substance=LSRFNFSNVLLRRNMSARA assigned_class=false
substance=THWMKRRVVA assigned_class=true
substance=ITWGFNVFMFVVPSWS assigned_class=true
substance=VVRSHTLQNSALRCWSDG assigned_class=true
substance=SFAAMLVSSKVVGWVTGRAT assigned_class=true
substance=RNARDSQYDISGACGLFRDR assigned_class=false
substance=WWLKALPRVILARLVSRGQG assigned_class=true
substance=SKPCWLFRNK assigned_class=false
substance=VSPLNGSVYGGDEVFGINLG assigned_class=false

----------
Assay: amyloid nucleation score (Sup35N fusion, yeast selection) (log enrichment); library NNK2; higher = more nucleation; inactive = no reads after selection
amyloid nucleation score below -0.3 gives No; amyloid nucleation score at or above it gives Yes.

chain_sequence=ILYGDVWLRFKRFWLSWMPA assigned_class=Yes
chain_sequence=ALENNIDPLGELASVPGCSG assigned_class=Yes
chain_sequence=FENIDGWRLFIIARRRAIGG assigned_class=No
chain_sequence=CSFDVYNSDCTTHDDIINNF assigned_class=No
chain_sequence=SYCILVLNL assigned_class=Yes
chain_sequence=MVTYVMLSIPGFSSKYFFEG assigned_class=No
chain_sequence=IPKHLSSSVYAYYDLRLVFV assigned_class=Yes

----------
Assay: amyloid nucleation score (Sup35N fusion, yeast selection) (log enrichment); library NNK1; higher = more nucleation; inactive = no reads after selection
// Not satisfied strictly below -0.1 in amyloid nucleation score; Satisfied otherwise

chain_sequence=SILEQILC assigned_class="Not satisfied"
chain_sequence=SSYFMVYYQRVTSCFMVGFL assigned_class="Not satisfied"
chain_sequence=RFMYAISSVTRYPMWPGMMQ assigned_class=Satisfied
chain_sequence=EVWNRTWIGEENVTGPFVPR assigned_class=Satisfied
chain_sequence=RAGCPDVGRRLSCSRSVLPR assigned_class=Satisfied
chain_sequence=CGLLWSCSKLH assigned_class=Satisfied
chain_sequence=NVRGSWVIMCYFTYVWMLGR assigned_class=Satisfied
chain_sequence=YALFADACSKGALDKVFSWV assigned_class=Satisfied
chain_sequence=KIALTLIRRLQFLNDSVKPQ assigned_class=Satisfied
chain_sequence=RYWCCSPVRSLVHGRHCEV assigned_class=Satisfied
chain_sequence=MFTYDGRVEWVLA assigned_class="Not satisfied"
chain_sequence=TNLLSLMMFDSKCIISEGIM assigned_class="Not satisfied"
chain_sequence=ILNFRERL assigned_class="Not satisfied"
chain_sequence=VPCMWRFTHVSKYEGKSRTL assigned_class="Not satisfied"
chain_sequence=PGRIYGRSGCYRV assigned_class=Satisfied
chain_sequence=FFILYINSQLIREVILRRAH assigned_class="Not satisfied"
chain_sequence=DNTGQVRIW assigned_class="Not satisfied"

----------
Assay: amyloid nucleation score (Sup35N fusion, yeast selection) (log enrichment); library NNK2; higher = more nucleation; inactive = no reads after selection
Items are presented alongside their recorded amyloid nucleation score.
Experimental endpoint: amyloid nucleation score

substance=SKTYRPCARLSFEHGRCNLV experimental_result=3.68
substance=LAKADPWHLKMLFSAMLRQD experimental_result=0.332
substance=GVDKWLDHVCFVASYLSVKV experimental_result=1.22
substance=NLMWTLNLF experimental_result=8.25
substance=ASSRFDDVINDRIRILVCAV experimental_result=-0.102
substance=RSCSMMVVHLYRGYGKFDTP experimental_result=-0.354
substance=SENIRDFVLKWCYLDTHDRL experimental_result=-0.261
substance=TYTVRFENSRRTGDN experimental_result=-0.13
substance=KMIVLK experimental_result=0.449
substance=LHDLDWYSGILIQFDSDMRW experimental_result=1.37
substance=CTFSRMSVFACILANQSVFY experimental_result=7.86
substance=KNIAISSRVADAGFWL experimental_result=2.31
substance=HYGVNESLIKRYNWLRGVIW experimental_result=0.227
substance=INHKQGCSTVWPVAKVCMLV experimental_result=0.201
substance=GVMSPHVTTFNILCVNNVLC experimental_result=8.72
substance=RSFRECQDCGMQMFISRRLV experimental_result=0.15
substance=DTALFYSNNVMTSKVGAQKS experimental_result=-0.003
substance=LFVRAFEPSGDHLCYQYVCL experimental_result=-0.566
substance=VMILGVYKNFMLIFELVPVY experimental_result=-1.01
substance=VLTSNTANIGTLHLINIRFH experimental_result=8.17
substance=TRDCLYFVLLILIIYLFGLR experimental_result=3.12
substance=NDDKRSRLMRWETSKIRSSV experimental_result=3.89
substance=AFRSSSPSRVHELRQMKELV experimental_result=1.14
substance=FCTNSYSFMDGTSCWAELRA experimental_result=0.594
substance=TFDFDNVAVYYALSGTGDSW experimental_result=-0.516
substance=NRCRNNGQLRGQCICGSVCL experimental_result=-0.284
substance=IETNTSGSPIVPKDDLYNSY experimental_result=-0.672
substance=FFYLRFAQWQLCRTFNAQGM experimental_result=-0.184
substance=FHGRSATGISRLYLKRGCSG experimental_result=0.761
substance=LGIASLQNGSGIGAWQAY experimental_result=0.04
substance=PSLVRRNTSLCL experimental_result=0.325
substance=CLSCGLRTEDLYWDTRICSD experimental_result=1.18
substance=QRYWSAYDTRNLIGE experimental_result=1.41
substance=ASVAGSV experimental_result=0.781
substance=INWLKYLAFLILLDMFNSFG experimental_result=0.263
substance=YWYWWSSWY experimental_result=1.6
substance=DCLIRIVQSTGVYVRWQGRA experimental_result=4.35
substance=RLYNKALYANFKNYSLTCFS experimental_result=-0.39
substance=SGARPVYFWLLIPLSYKL experimental_result=0.285
substance=YVSDYG experimental_result=0.199
substance=GFTRKASGADTRGRRTAVSS experimental_result=1.61
substance=GYRNPLLLILLDRVKFSCSR experimental_result=-1.19
substance=VMWASERWYANETNSHLFSL experimental_result=-0.105
substance=QGGLDRMYGSDVVYFKDTYP experimental_result=0.379
substance=SCKWVRGVSRMPNHWN experimental_result=-0.618
substance=NWNVRRYVTPAFEFRGCV experimental_result=0.833
substance=IIEIEGVCAFDWLRIFLILI experimental_result=-1.27
substance=DFYLFQG experimental_result=0.228
substance=RTQSLASQ experimental_result=0.144
substance=SMFNCNWYCGCCMCNLGCLA experimental_result=7.33
substance=TVDNPSNSFTFFRVYQLYVR experimental_result=3.11
substance=IVWLLLSGRF experimental_result=4.54
substance=ILKSKVSGPIYVSE experimental_result=0.848
substance=GYTIDWMGVLQSVVLCT experimental_result=0.524
substance=FVLTSSMVLFWDGRNDARHG experimental_result=4.31
substance=VVLLAKYQVCIICIKEDLSN experimental_result=3.78
substance=WCNTRRCNSPPLVVC experimental_result=1.86
substance=DAWRFSTNSLHSTAYYYYFL experimental_result=5.78
substance=YTISSIVVLDMFS experimental_result=1.41
substance=GLQRKGCP experimental_result=-0.356
substance=PTSNPSQRSRQRHQ experimental_result=0.619
substance=ASLIRGATKGQTVCEMALSG experimental_result=-0.07
substance=NSNLLNTLFWVVT experimental_result=4.03
substance=SLSGRLMNFYIMQNSIPTWW experimental_result=6.79
substance=TGLIGEPYGWDRSTTGF experimental_result=0.17
substance=CGFFVNEFTDLAWSYSLAVN experimental_result=-0.117
substance=FSSQFHLRAYNTIRCSLDDF experimental_result=0.534

Attribution: the supplement of paper PMC12042874
